Kindly supply the reported half-life values for the records listed here.
- Protocol Text: T1/2 in blood (mouse)
- Condition Label: whole blood
Where a SMILES comes first, the peptide text is derived from it. [ ]: non-standard residue; d: D form. pGlu = O=C1CC[C@@H](C(=O)O)N1
Give bare numbers, in h.

Compound	Unit Info	Reported
CNC(=O)[C@H](C)NC(=O)CNC(=O)[C@@H]1CCC(=O)N1 [SEQ ID NO. 29, pEGA-NHMe] ([pGlu]-Gly-Ala-NHMe)	h	1.62

I would be grateful if you could share the reported half-life for NC(=O)[C@H](Cc1ccccc1)NC(=O)CNC(=O)[C@@H]1CCC(=O)N1 [SEQ ID NO. 33, pEGF-NH2] ([pGlu]-Gly-Phe-NH2) .
2.43

====

- Protocol Text: T1/2 in plasma (mouse)
- Assay type: in vitro ADME
- Condition Label: mouse, plasma; 1 μM peptide, 37° C.
Where a SMILES comes first, the peptide text is derived from it. [ ]: non-standard residue; d: D form. pGlu = O=C1CC[C@@H](C(=O)O)N1
Measurement Label: half-life

Molecule	half-life
C[C@H](NC(=O)CNC(=O)[C@@H]1CCC(=O)N1)C(=O)O [SEQ ID NO. 21, pEGA] ([pGlu]-Gly-Ala-OH)	> 3 h
C[C@@H](O)[C@H](NC(=O)[C@H](Cc1ccc(O)cc1)NC(=O)[C@@H](N)CO)C(N)=O [SEQ ID NO. 18, H-SYT-NH2] (H-Ser-Tyr-Thr-NH2)	0.283 h
C[C@H](NC(=O)CNC(=O)[C@@H]1CCC(=O)N1)C(N)=O [SEQ ID NO. 23, pEGA-NH2] ([pGlu]-Gly-Ala-NH2)	> 3 h

Next item in the queue.
I would be grateful if you could share the reported half-life for CC(C)[C@@H](NC(=O)[C@H](N)[C@H](C)O)C(=O)N[C@H](CO)C(N)=O (relative stereo) .
> 3 h
